Hey, just so you know, these numbers are from ChEMBL document CHEMBL1156120.

Target: Amyloid-beta precursor protein (Homo sapiens)
Sequence (P05067 whole entry): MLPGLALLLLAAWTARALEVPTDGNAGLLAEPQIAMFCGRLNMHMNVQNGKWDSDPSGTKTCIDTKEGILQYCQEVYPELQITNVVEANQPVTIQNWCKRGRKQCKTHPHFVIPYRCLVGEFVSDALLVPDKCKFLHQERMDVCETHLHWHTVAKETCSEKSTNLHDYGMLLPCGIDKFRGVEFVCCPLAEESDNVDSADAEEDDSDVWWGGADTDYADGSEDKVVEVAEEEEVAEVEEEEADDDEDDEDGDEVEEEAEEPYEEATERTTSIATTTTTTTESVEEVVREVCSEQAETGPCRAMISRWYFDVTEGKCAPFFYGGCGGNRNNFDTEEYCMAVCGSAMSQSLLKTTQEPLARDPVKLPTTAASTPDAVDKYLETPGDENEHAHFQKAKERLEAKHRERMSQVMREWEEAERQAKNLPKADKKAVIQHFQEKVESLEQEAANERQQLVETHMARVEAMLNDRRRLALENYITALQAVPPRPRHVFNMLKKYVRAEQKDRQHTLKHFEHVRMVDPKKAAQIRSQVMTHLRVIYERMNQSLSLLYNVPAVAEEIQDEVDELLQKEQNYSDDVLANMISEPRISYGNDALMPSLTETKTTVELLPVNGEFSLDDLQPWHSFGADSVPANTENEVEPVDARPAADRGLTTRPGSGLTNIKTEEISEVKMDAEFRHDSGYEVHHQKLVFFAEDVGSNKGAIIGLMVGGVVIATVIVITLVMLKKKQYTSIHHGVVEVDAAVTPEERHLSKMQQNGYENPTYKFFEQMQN
Test: Binding affinity to Beta amyloid aggregates in Alzheimer's disease patient brain by competitive binding assay
parameter.measured: pKi
Please note pKi is a logarithmic value: minus log10 of concentration in mol/L. Answer with that number alone.

>  <compound>
CN(C)c1ccc(/C=C/c2ccc(F)cc2)cc1

>  <parameter.measured>
pKi

>  <data.value>
7.66

$$$$

# pKi of COc1ccc(/C=C/c2cccc(I)c2)cc1 = 7.66

====

Assay: Partition coefficient, log P at pH 7.4
Type: physicochemical
Details: octanol/water
parameter.measured: logD

# logD of CNc1ccc(/C=C/c2ccc(OCC(CO)C[18F])cc2)cc1 (stereo unspecified) = 2.95
